Target: human JAK1 (a.a. 837-1142) catalytic domain (Homo sapiens)
Construct: human JAK1 (a.a. 837-1142); His tag (N); made in house; host or cells: insect cells (baculovirus)
Sequence (P23458 849-1154): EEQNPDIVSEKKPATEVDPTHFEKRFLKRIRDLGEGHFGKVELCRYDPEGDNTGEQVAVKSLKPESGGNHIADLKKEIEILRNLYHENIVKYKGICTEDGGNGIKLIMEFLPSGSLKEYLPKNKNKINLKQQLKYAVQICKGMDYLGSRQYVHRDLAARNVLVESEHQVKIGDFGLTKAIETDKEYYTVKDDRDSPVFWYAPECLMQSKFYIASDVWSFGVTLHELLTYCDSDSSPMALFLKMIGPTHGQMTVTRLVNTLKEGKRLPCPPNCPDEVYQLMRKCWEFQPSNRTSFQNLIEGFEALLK
Assay: In vitro JAK kinase assay (HTRF, phosphorylation of biotinylated peptide), JAK1
Format: biochemical
Details: Table A; ATP 1 mM
# IC50 per record follows

1. N#CCC(CN1CCC(Oc2cc(F)cc(CN3CCOCC3)c2)CC1)n1cc(-c2ncnc3[nH]ccc23)cn1 (stereo not shown) : 5 to 25 nM
2. N#CCC(CN1CCC(Oc2cc(F)cc(F)c2F)CC1)n1cc(-c2ncnc3[nH]ccc23)cn1 (stereo not shown) [Example 5, tris(trifluoroacetate)] : < 5 nM
3. CC(C)NC(=O)c1cc(F)cc(OC2CCN(CC(CC#N)n3cc(-c4ncnc5[nH]ccc45)cn3)CC2)c1 (stereo not shown) [Example 11, tris(trifluoroacetate)] : < 5 nM

Now consider a different molecule.
What value of IC50 has been recorded for this entry: N#CCC(CN1CCC(Oc2cc(F)c(F)c(F)c2)CC1)n1cc(-c2ncnc3[nH]ccc23)cn1 (stereo not shown) [Example 4, tris(trifluoroacetate)]
5 to 25 nM

====

Biological target: JAK2 (a.a. 828-1132) catalytic domain (Homo sapiens)
Construct: JAK2 (a.a. 828-1132); His tag (N); made in house; host or cells: insect cells (baculovirus)
Sequence (O60674 828-1132): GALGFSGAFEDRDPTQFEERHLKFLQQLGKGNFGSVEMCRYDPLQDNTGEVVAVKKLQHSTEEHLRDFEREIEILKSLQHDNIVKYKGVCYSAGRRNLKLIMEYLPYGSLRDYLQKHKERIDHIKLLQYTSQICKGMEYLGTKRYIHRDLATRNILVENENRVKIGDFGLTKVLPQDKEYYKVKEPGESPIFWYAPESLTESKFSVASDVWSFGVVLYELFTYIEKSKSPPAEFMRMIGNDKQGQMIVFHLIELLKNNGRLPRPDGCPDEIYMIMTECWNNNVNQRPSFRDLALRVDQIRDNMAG
Assay: In vitro JAK kinase assay (HTRF, phosphorylation of biotinylated peptide), JAK2
Type: biochemical
Details: Table A; ATP 1 mM
pIC50: −log10 of the molar value.
compounds and their reported pIC50

1. N#CCC(CN1CCC(Oc2cc(F)cc(C(=O)NCCC(N)=O)c2)CC1)n1cc(-c2ncnc3[nH]ccc23)cn1 (stereo not shown) : 7.60 to 8.30
2. N#CCC(CN1CCC(Oc2cc(F)cc(CN3CCCCC3)c2)CC1)n1cc(-c2ncnc3[nH]ccc23)cn1 (stereo not shown) : 7.60 to 8.30
3. CN(C)C(=O)c1cc(F)cc(OC2CCN(CC(CC#N)n3cc(-c4ncnc5[nH]ccc45)cn3)CC2)c1 (stereo not shown) [Example 8, tris(trifluoroacetate)] : 7.60 to 8.30

Record lookup: for JAK2 (a.a. 828-1132) catalytic domain (Homo sapiens), what pIC50 belongs to N#CCC(CN1CCC(Oc2cc(F)cc(C(=O)N3CCCCC3)c2)CC1)n1cc(-c2ncnc3[nH]ccc23)cn1 (stereo not shown) ?
7.60 to 8.30

# returns recorded pIC50 (system: JAK2 (a.a. 828-1132) catalytic domain (Homo sapiens)) for N#CCC(CN1CCC(Oc2cc(F)cc(C(=O)N3CCC(F)(F)C3)c2)CC1)n1cc(-c2ncnc3[nH]ccc23)cn1 (stereo not shown)
7.60 to 8.30

What measured pIC50 is associated with N#CCC(CN1CCC(Oc2cc(F)cc(CN3CCOCC3)c2)CC1)n1cc(-c2ncnc3[nH]ccc23)cn1 (stereo not shown) on JAK2 (a.a. 828-1132) catalytic domain (Homo sapiens)?
< 7.00

Missing value: pIC50, JAK2 (a.a. 828-1132) catalytic domain (Homo sapiens), entry N#CCC(CN1CCC(Oc2cc(F)cc(CN3CCCC3)c2)CC1)n1cc(-c2ncnc3[nH]ccc23)cn1 (stereo not shown) [Example 24, (trifluoroacetate)] . Fill in?
7.00 to 7.60
